Catalogue of EC50 values
- assayedTarget: proteasome in Molt-4 cells (human leukemia) (Homo sapiens, UniProt P20618+P28074)
- Sequence (P28074 60-263): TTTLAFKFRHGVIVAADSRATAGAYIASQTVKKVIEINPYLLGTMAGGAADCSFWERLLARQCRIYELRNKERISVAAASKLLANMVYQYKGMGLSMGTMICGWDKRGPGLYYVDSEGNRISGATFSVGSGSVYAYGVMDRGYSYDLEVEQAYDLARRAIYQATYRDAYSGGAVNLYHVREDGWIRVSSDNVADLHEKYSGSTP
- Sequence (P20618 29-241): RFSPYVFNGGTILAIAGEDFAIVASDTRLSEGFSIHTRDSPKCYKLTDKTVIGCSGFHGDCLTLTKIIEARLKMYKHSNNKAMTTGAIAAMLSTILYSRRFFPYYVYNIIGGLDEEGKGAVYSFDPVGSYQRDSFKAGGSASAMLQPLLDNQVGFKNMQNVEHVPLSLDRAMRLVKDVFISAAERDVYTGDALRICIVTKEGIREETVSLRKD
- Type: cell-based
- statedConditions: assay of Example E, inhibition of MOLT4; read-out: MOLT4 (EC50)
- Experimental: Cellular Assay for Chymotrypsin-like activity of Proteasome in Molt-4 Cell Line The chymotrypsin-like activity of proteasome in Molt-4 cells (human leukemia) was assayed according to the following procedure. […] The concentration of free AFC was monitored every 1.5 min for 30 min ([…]) on a Polastar Optima, BMG Labtechnologies microplate reader, using an excitation wavelength of 390 nm and emission wavelength of 520 nm. […]

Solved cases below.
CC(C)C[C@H](NC(=O)[C@@H](NC(=O)CCCCCCCCCN1C(=O)c2ccccc2C1=O)[C@@H](C)O)B(O)O = < 200 nM
CC(C)CCCC(=O)N[C@@H](CCCNC(=N)N[N+](=O)[O-])C(=O)N[C@@H](CC(C)C)B1O[C@@H]2C[C@@H]3C[C@@H](C3(C)C)[C@]2(C)O1 = < 200 nM
CCCCc1ccc(C(=O)N[C@@H](CNC(C)=O)C(=O)N[C@@H](CC(C)C)B(O)O)cc1 = < 200 nM
CCCCc1ccc(C(=O)N[C@@H](CNC(=O)c2cccnc2)C(=O)N[C@@H](CC(C)C)B2O[C@@H]3C[C@@H]4C[C@@H](C4(C)C)[C@]3(C)O2)cc1 = < 200 nM
CCOC(=O)/C=C/C(=O)N[C@@H](CCCNC(=N)N[N+](=O)[O-])C(=O)N[C@@H](CC(C)C)B(O)O = > 10000 nM

For the next question, use this compound.
Task: Fill in the recorded EC50 for this compound, with proteasome in Molt-4 cells (human leukemia) (Homo sapiens, UniProt P20618+P28074) as test system: CC(C)C[C@H](NC(=O)[C@H](CCCNC(=N)N[N+](=O)[O-])NC(=O)CCCCC1CCCCC1)B1O[C@@H]2C[C@@H]3C[C@@H](C3(C)C)[C@]2(C)O1
Output: < 200 nM
